Study target: Rat IL-23R_huFC (rat)
Assay method text: rat ELISA vs IL-23
*1 amine or outer side, *2 acyl side, *3 side chain or, on linkers, in order; H or OH if unused. Bridges are numbered along the chain shown (N, C = ends). [ ]: non-standard residue; d: D form. The star is where a group is joined. Phe(4-OMe) = 4-methoxy-L-phenylalanine (O-methyl-L-tyrosine), COc1ccc(C[C@H](N[*:1])C(=O)[*:2])cc1; Trp(6-Cl) = N[C@@H](Cc1c[nH]c2cc(Cl)ccc12)C(=O)O; 2Nal = N[C@@H](Cc1ccc2ccccc2c1)C(=O)O; AEF = NCCOc1ccc(C[C@H](N)C(=O)O)cc1; αMeK = C[C@](N)(CCCCN)C(=O)O; Isovaleryl = CC(C)CC(=O)*; Abu = CC[C@H](N)C(=O)O
Measured IC50, listed per entry for reference.
Endpoint name: IC50

Binder	Endpoint name	Test value
Ac-[Abu]QTWQC[Phe(4-OMe)]W[αMeK]K(Ac)NG-NH2 (thioether 1-6) [Ac-Cyclo-[[Abu]-QTWQC]-[Phe(4-OMe)]-W-[α-MeLys]-[Lys(Ac)]-NG-NH2]	IC50	0.01 to 0.025 µM
Ac-[Abu]QTWQC[AEF][2Nal][αMeK]K(Isovaleryl)NG-NH2 (thioether 1-6) [Ac-Cyclo-[[Abu]-QTWQC]-[Phe[4-(2-aminoethoxy)]]-[2-Nal]-[α-MeLys]-[Lys(isovaleric acid)]-NG-NH2]	IC50	0.01 to 0.025 µM
Ac-[Abu]QT[Trp(6-Cl)]QC[AEF][2Nal][αMeK]ENG-NH2 (thioether 1-6) [Ac-Cyclo-[[Abu]-QT-[6-chloroTrp]-QC]-[Phe[4-(2-aminoethoxy)]]-[2-Nal]-[α-MeLys]-ENG-NH2]	IC50	0.01 to 0.025 µM
